Experiment: Body temperature of mice after intravenous injection
Type: in vivo
Conditions: 5 min
Quantity Kind: body temperature at 5 min
Would you mind answering with just the numeric figure?

The examples below pair each entry with its known result.
- Molecule: "CC(=O)[O-].[Na+] [1.0 M SODIUM ACETATE, SODIUM ACETATE]"
  Measured Value: 37.5
- Molecule: "N[C@@H](CC(=O)O)C(=O)O [ASPARTIC ACID]"
  Measured Value: 36.7
- Molecule: "[Cl-].[Na+] [3.0 M NaCl, NaCl]"
  Measured Value: 36.5
- Molecule: "N[C@@H](Cc1c[nH]c2ccccc12)C(=O)O [TRYPTOPHAN]"
  Measured Value: 36.8
- Molecule: "O=C([O-])O.[K+] [3.0 M KHCO3, KHCO3]"
  Measured Value: 35.0

Next:
Entry under test: O=C(O)CCCC(=O)O [GLUTARIC ACID] . Its body temperature at 5 min was 37.0

These entries and their values trace back to patent US4382920A.
